Tested on: A204
test: Antiproliferative activity against human A204 cells assessed as inhibition of cell growth incubated for 7 days by CellTiterGlo assay
Format: functional, cell-based
assay conditions: A204, 168 h
Reported pIC50 values for a set of compounds
Lab note — pIC50 values are minus log10 of concentrations in M.

Some solved entries appear below for comparison.
INSERT INTO results (compound, quantity_measured, endpoint_result) VALUES
  ('COc1cc(-c2cn(C)c(=O)c3cnccc23)cc(OC)c1CN(C)CC(=O)NCCOCCOCCNc1cccc2c1C(=O)N(C1CCC(=O)NC1=O)C2=O (stereo unspecified)', 'pIC50', 7.05),
  ('COc1cccc2c1C(=O)c1c(O)c3c(c(O)c1C2=O)C[C@@](O)(C(=O)CO)C[C@@H]3O[C@H]1C[C@H](N)[C@H](O)[C@H](C)O1', 'pIC50', 8.19),
  ('COc1cc(-c2cn(C)c(=O)c3cnccc23)c(OC)cc1CN(C)C', 'pIC50', 5.45),
  ('COc1cc(-c2cn(C)c(=O)c3cnccc23)cc(OC)c1CN(C)C', 'pIC50', 6.43),
  ('COc1cc(-c2cn(C)c(=O)c3cnccc23)cc(OC)c1CN1CCN(CCCCCOc2cc(-c3scnc3C)ccc2CNC(=O)[C@@H]2C[C@@H](O)CN2C(=O)[C@@H](NC(=O)C2(F)CC2)C(C)(C)C)CC1', 'pIC50', 7.40);

Input COc1cc(-c2cn(C)c(=O)c3cnccc23)cc(OC)c1CN1CCN(CCOCCOCC(=O)NCCNc2cccc3c2C(=O)N(C2CCC(=O)NC2=O)C3=O)CC1 (stereo unspecified) , output reported pIC50. 6.52

====

assayed system: von Hippel-Lindau disease tumor suppressor/Bromodomain-containing protein 7 (Homo sapiens) (UniProt Q9NPI1+P40337)
Sequence (P40337 whole entry, looked up): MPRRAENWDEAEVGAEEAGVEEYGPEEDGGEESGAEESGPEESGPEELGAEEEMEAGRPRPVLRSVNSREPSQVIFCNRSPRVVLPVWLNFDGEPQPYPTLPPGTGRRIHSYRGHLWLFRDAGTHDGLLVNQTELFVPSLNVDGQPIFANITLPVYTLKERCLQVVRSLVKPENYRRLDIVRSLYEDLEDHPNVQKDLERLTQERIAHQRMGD
Sequence (Q9NPI1 whole entry, looked up): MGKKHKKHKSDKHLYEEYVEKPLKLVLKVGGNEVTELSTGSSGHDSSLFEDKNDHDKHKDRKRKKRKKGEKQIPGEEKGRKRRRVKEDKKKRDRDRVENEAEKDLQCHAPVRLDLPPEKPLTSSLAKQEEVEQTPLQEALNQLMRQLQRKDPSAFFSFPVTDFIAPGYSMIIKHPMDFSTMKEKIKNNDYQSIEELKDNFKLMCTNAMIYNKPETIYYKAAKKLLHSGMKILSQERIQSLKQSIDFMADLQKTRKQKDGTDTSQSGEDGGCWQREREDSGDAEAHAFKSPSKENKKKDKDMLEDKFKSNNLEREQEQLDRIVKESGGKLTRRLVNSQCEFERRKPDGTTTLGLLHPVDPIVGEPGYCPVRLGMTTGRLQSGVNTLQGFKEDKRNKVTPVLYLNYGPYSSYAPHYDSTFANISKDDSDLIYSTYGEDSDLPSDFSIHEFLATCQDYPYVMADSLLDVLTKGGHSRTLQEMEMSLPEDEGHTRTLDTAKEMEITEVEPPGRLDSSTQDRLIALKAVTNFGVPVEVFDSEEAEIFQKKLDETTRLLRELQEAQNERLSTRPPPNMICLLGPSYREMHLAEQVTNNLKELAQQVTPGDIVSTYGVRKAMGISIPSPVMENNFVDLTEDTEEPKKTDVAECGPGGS
test: PROTAC activity at VHL/BRD7 in human HeLa cells assessed as remaining BRD7 protein level at 1 uM incubated for 4 hrs by Western blot analysis relative to control
Format: cell-based
Reported Activity values for a set of compounds
Phrase the answer as number then unit, nothing more needed.

Some solved entries appear below for comparison.
INSERT INTO assay_data (substance_smiles, quantity_measured, endpoint_result) VALUES
  ('COc1cc(-c2cn(C)c(=O)c3cnccc23)cc(OC)c1CN1CCN(CCOCCOCCOc2cc(-c3scnc3C)ccc2CNC(=O)[C@@H]2C[C@@H](O)CN2C(=O)[C@@H](NC(C)=O)C(C)(C)C)CC1', 'Activity', '95%'),
  ('COc1cc(-c2cn(C)c(=O)c3cnccc23)c(OC)cc1CN1CCN(CCCCCOCCOc2cc(-c3scnc3C)ccc2CNC(=O)[C@@H]2C[C@@H](O)CN2C(=O)[C@@H](NC(=O)C2(F)CC2)C(C)(C)C)CC1', 'Activity', '336%'),
  ('COc1cc(-c2cn(C)c(=O)c3cnccc23)cc(OC)c1CN1CCN(CCOCCOCCOCC(=O)N[C@H](C(=O)N2C[C@H](O)C[C@H]2C(=O)NCc2ccc(-c3scnc3C)cc2)C(C)(C)C)CC1', 'Activity', '107%'),
  ('COc1cc(-c2cn(C)c(=O)c3cnccc23)c(OC)cc1CN1CC(NC(=O)COCCOCCOCCOc2cc(-c3scnc3C)ccc2CNC(=O)[C@@H]2C[C@@H](O)CN2C(=O)[C@@H](NC(=O)C2(F)CC2)C(C)(C)C)C1', 'Activity', '138%');

Please turn your attention to the following entry.
Input `COc1cc(-c2cn(C)c(=O)c3cnccc23)cc(OC)c1CN1CC(NC(=O)CCCCOc2cc(-c3scnc3C)ccc2CNC(=O)[C@@H]2C[C@@H](O)CN2C(=O)[C@@H](NC(=O)C2(F)CC2)C(C)(C)C)C1` , output reported Activity. 25%

====

assayed system: von Hippel-Lindau disease tumor suppressor/Bromodomain-containing protein 9 (Homo sapiens) (UniProt Q9H8M2+P40337)
Sequence (Q9H8M2 whole entry, looked up, one chain of several): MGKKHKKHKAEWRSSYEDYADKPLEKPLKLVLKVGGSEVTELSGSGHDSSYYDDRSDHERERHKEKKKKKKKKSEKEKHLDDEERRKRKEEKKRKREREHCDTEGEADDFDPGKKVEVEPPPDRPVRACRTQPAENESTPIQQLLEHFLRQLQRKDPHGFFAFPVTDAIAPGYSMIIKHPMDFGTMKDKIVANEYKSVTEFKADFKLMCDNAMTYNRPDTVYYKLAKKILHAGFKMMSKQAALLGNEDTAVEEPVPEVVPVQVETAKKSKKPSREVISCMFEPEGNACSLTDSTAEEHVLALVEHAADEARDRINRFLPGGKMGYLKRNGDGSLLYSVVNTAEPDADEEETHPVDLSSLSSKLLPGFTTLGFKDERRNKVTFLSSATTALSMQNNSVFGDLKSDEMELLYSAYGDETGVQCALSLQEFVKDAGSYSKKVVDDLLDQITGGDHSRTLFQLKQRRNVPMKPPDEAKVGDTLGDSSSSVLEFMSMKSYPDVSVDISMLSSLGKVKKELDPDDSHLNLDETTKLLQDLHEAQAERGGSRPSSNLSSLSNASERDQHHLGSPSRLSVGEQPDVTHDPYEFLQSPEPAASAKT
test: PROTAC activity at VHL/BRD9 in human Ri-1 cells assessed as remaining BRD9 protein level at 1 uM incubated for 2 hrs by Western blot analysis relative to control
Type: cell-based
Reported Activity values for a set of compounds
Phrase the answer as number then unit, nothing more needed.

Some solved entries appear below for comparison.
INSERT INTO results (substance_smiles, endpoint_result) VALUES
  ('COc1cc(-c2cn(C)c(=O)c3cnccc23)c(OC)cc1CN1CC(NC(=O)COCCOCCOCCOc2cc(-c3scnc3C)ccc2CNC(=O)[C@@H]2C[C@@H](O)CN2C(=O)[C@@H](NC(=O)C2(F)CC2)C(C)(C)C)C1', '95%'),
  ('COc1cc(-c2cn(C)c(=O)c3cnccc23)c(OC)cc1CN1CC(NC(=O)CCCCOCCOc2cc(-c3scnc3C)ccc2CNC(=O)[C@@H]2C[C@@H](O)CN2C(=O)[C@@H](NC(=O)C2(F)CC2)C(C)(C)C)C1', '94%');

Input `COc1cc(-c2cn(C)c(=O)c3cnccc23)c(OC)cc1CN1CCN(CCOCCOCCOCCOc2cc(-c3scnc3C)ccc2CNC(=O)[C@@H]2C[C@@H](O)CN2C(=O)[C@@H](NC(=O)C2(F)CC2)C(C)(C)C)CC1` , output reported Activity. 127%

====

test: Kinetic aqueous solubility of the compound by laser nephelometry
Assay type: physicochemical
assay conditions: read-out: Kinetic_solubility
quantity measured: solubility kinetic

Input `COc1cc(-c2cn(C)c(=O)c3cnccc23)cc(OC)c1CN1CCN(CCCCCOc2cc(-c3scnc3C)ccc2CNC(=O)[C@@H]2C[C@@H](O)CN2C(=O)[C@@H](NC(=O)C2(F)CC2)C(C)(C)C)CC1` , output reported solubility kinetic. ≤ 100 µM

====

assayed system: von Hippel-Lindau disease tumor suppressor/Bromodomain-containing protein 7 (Homo sapiens) (UniProt Q9NPI1+P40337)
test: PROTAC activity at VHL/BRD7 in human Ri-1 cells assessed as remaining BRD7 protein level at 1 uM incubated for 2 hrs by Western blot analysis relative to control
Assay type: cell-based
Reported Activity values for a set of compounds

Some solved entries appear below for comparison.
INSERT INTO assay_data (substance_smiles, quantity_measured, endpoint_result) VALUES
  ('COc1cc(-c2cn(C)c(=O)c3cnccc23)c(OC)cc1CN1CCN(CCOCCOCCOc2cc(-c3scnc3C)ccc2CNC(=O)[C@@H]2C[C@@H](O)CN2C(=O)[C@@H](NC(=O)C2(F)CC2)C(C)(C)C)CC1', 'Activity', '149%'),
  ('COc1cc(-c2cn(C)c(=O)c3cnccc23)c(OC)cc1CN1CC(NC(=O)CCCCOCCOc2cc(-c3scnc3C)ccc2CNC(=O)[C@@H]2C[C@@H](O)CN2C(=O)[C@@H](NC(=O)C2(F)CC2)C(C)(C)C)C1', 'Activity', '97%');

Input `COc1cc(-c2cn(C)c(=O)c3cnccc23)c(OC)cc1CN1CC(NC(=O)COCCOCCOc2cc(-c3scnc3C)ccc2CNC(=O)[C@@H]2C[C@@H](O)CN2C(=O)[C@@H](NC(=O)C2(F)CC2)C(C)(C)C)C1` , output reported Activity. 120%

Input `COc1cc(-c2cn(C)c(=O)c3cnccc23)cc(OC)c1CN1CCN(CCCCCOCCOc2cc(-c3scnc3C)ccc2CNC(=O)[C@@H]2C[C@@H](O)CN2C(=O)[C@@H](NC(=O)C2(F)CC2)C(C)(C)C)CC1` , output reported Activity. 83%

Input `COc1cc(-c2cn(C)c(=O)c3cnccc23)c(OC)cc1CN1CCN(CCCCCOc2cc(-c3scnc3C)ccc2CNC(=O)[C@@H]2C[C@@H](O)CN2C(=O)[C@@H](NC(=O)C2(F)CC2)C(C)(C)C)CC1` , output reported Activity. 65%

====

Reported Activity values for a set of compounds
assayed system: von Hippel-Lindau disease tumor suppressor/Bromodomain-containing protein 7 (Homo sapiens) (UniProt Q9NPI1+P40337)
test: PROTAC activity at VHL/BRD7 in human HeLa cells assessed as remaining BRD7 protein level at 1 uM incubated for 4 hrs by Western blot analysis relative to control
Type: cell-based
Report only the number, with the unit % understood.

INSERT INTO results (substance_smiles, quantity_measured, endpoint_result) VALUES
  ('COc1cc(-c2cn(C)c(=O)c3cnccc23)c(OC)cc1CN1CC(NC(=O)CCCCOc2cc(-c3scnc3C)ccc2CNC(=O)[C@@H]2C[C@@H](O)CN2C(=O)[C@@H](NC(=O)C2(F)CC2)C(C)(C)C)C1', 'Activity', 54),
  ('COc1cc(-c2cn(C)c(=O)c3cnccc23)c(OC)cc1CN1CCN(CCOCCOCCOCCOc2cc(-c3scnc3C)ccc2CNC(=O)[C@@H]2C[C@@H](O)CN2C(=O)[C@@H](NC(=O)C2(F)CC2)C(C)(C)C)CC1', 'Activity', 206);

Please turn your attention to the following entry.
Input `COc1cc(-c2cn(C)c(=O)c3cnccc23)cc(OC)c1CN1CC(NC(=O)COCCOCCOCCOc2cc(-c3scnc3C)ccc2CNC(=O)[C@@H]2C[C@@H](O)CN2C(=O)[C@@H](NC(=O)C2(F)CC2)C(C)(C)C)C1` , output reported Activity. 103
